Tested on: IGROV-1
Test Protocol: NCI tumour cell line growth inhibition, 48 h
The source made the active and inactive calls. Cut-off read from the data, not from the text of the source: active = GI50 up to about 1.1 µM and inactive = higher.
Result category, one only: active, inactive

These solved cases illustrate the format of a correct answer.
Cc1ccc(-c2nc3c(C(=O)NCCN(C)C)cccc3[nH]2)cc1
inactive
COC(=O)C1Cc2c([nH]c3ccccc23)-c2[nH]c3ccccc3c2CC(NC(C)=O)C(=O)NCC(=O)NCC(=O)N1 (stereo unspecified)
inactive
COC(=O)C1=C(O)C(C(=O)OC)[C@]2(O)[C@H](C(=O)OC)[C@H]1C[C@@H](c1ccc(Cl)cc1Cl)[C@H]2C(=O)OC (stereo partly specified)
inactive
CCOC(=O)/C=C1\c2ccccc2C(=O)N1CC(=O)OCC
inactive

query: Per the assay record, what outcome was assigned to `Cc1ccc(S(=O)(=O)NC(=O)NS(=O)(=O)O)cc1` ?
result: inactive

query: Also, `CCc1nnc(-n2c(C)nc3cc(Cl)ccc3c2=O)s1` please.
result: inactive

query: Also, `CSC(SC)=C1CC(=O)Nc2ccccc2C1=O` please.
result: inactive

query: Also, `C/C(=N\Nc1ncnc2ccccc12)c1ccccn1` please.
result: active

query: Also, COC1OC(CBr)C(OC(c2ccccc2)(c2ccccc2)c2ccccc2)C(OC(c2ccccc2)(c2ccccc2)c2ccccc2)C1OC(c1ccccc1)(c1ccccc1)c1ccccc1 (stereo unspecified) please.
result: inactive

query: Also, `Nc1cc2c(cc1[N+](=O)[O-])[nH]c1c(-c3ccccc3)nccc12` please.
result: inactive
